- test details: Central nervous system toxicity was performed by determining the median toxic dose in the rotarod test
- Format: organism-based
- measurement setup: mouse, in vivo
measurement label: log10 TD50 (log10 of the value in mg/kg)

In [3]: df
Out[3]:
                                   compound  result_value
0       CN1C(=O)CN=C(c2ccccc2)c2cc(Cl)ccc21          0.45
1             Cc1nn2cnnc2cc1Cc1c(Cl)cccc1Cl          1.94
2                   Cc1nn2cnnc2cc1Cc1ccccc1          2.23
3  NC(=O)N1c2ccccc2C=Cc2ccccc21 [CARBAMAZEPINE]          1.60
4         O=C1NC(=O)C(c2ccccc2)(c2ccccc2)N1          1.48
5          Cc1nn2c(N)nnc2cc1Cc1c(Cl)cccc1Cl          2.61
6            CCC1(c2ccccc2)C(=O)NC(=O)NC1=O          1.52
7               Cc1nnc(NC(N)=O)cc1Cc1ccccc1          2.15
8  CCCC(CCC)C(=O)[O-].[Na+] [VALPROATE SODIUM]          2.32

* * *

- Tested on: Mus musculus
- test details: Tested for NMDLA induced seizures and protection against full generalized tonic seizures was recorded; Percentage of protection at 150 mg/kg per os.
- Assay type: functional
- measurement setup: Mus musculus, po
measurement label: ED50

                                   molecule  result_value
0                Cc1nn2c(N)nnc2cc1Cc1ccccc1      14 mg/kg
1          Cc1nn2c(N)nnc2cc1Cc1c(Cl)cccc1Cl      14 mg/kg
2  NC(=O)N1c2ccccc2C=Cc2ccccc21 [CARBAMAZEPINE]      20 mg/kg
3                   Cc1nn2cnnc2cc1Cc1ccccc1      25 mg/kg
4               Cc1nnc(NC(N)=O)cc1Cc1ccccc1    12.5 mg/kg

* * *

- Tested on: Mus musculus
- test details: Locomotor activity in maximal electroshock seizure+ indicates increase at 100 mg/kg
- Format: functional
// NB: equality with 9% counts as not met; only Locomotor activity strictly below is met

In [3]: df
Out[3]:
                                    compound     tested_on  group_label
 0                   Cc1nn2cnnc2cc1Cc1ccccc1  Mus musculus          met
 1                Cc1nn2c(C)nnc2cc1Cc1ccccc1  Mus musculus      not met
 2   Cc1nn2c(NC(=O)c3ccccc3)nnc2cc1Cc1ccccc1  Mus musculus          met
 3          Cc1nn2c(N)nnc2cc1Cc1c(Cl)cccc1Cl  Mus musculus      not met
 4                Cc1nn2c(N)nnc2cc1Cc1ccccc1  Mus musculus      not met
 5             Cc1nn2cnnc2cc1Cc1c(Cl)cccc1Cl  Mus musculus      not met
 6  CCC1(c2ccccc2)C(=O)NC(=O)NC1=O [PHENOBARBITAL]  Mus musculus      not met
 7  NC(=O)N1c2ccccc2C=Cc2ccccc21 [CARBAMAZEPINE]  Mus musculus          met
 8        Cc1nn2c(-c3ccccc3)nnc2cc1Cc1ccccc1  Mus musculus          met
 9                 Cc1nn2cnnc2cc1Cc1ccccc1Cl  Mus musculus          met
10        Cc1nn2cc(-c3ccccc3)nc2cc1Cc1ccccc1  Mus musculus      not met
